# target: CB1 receptors (Rattus norvegicus)
# Construct: cerebellar membranes (400 μg wet weight per tube) were thoroughly mixed in a final volume of 0.5 mL; from tissue; host or cells: rat cerebellum (Male Wistar rats), membrane homogenate
# measurement-protocol: Radioligand binding assay: displacement of [3H]SR141716A from rat cerebellar homogenates
# condition-details: displacement of [3H]SR141716A (0.5 nM), rat cerebellar membranes; read-out: IC50
metric: pIC50
Recall that pIC50 is obtained by taking minus log10 of the concentration measured in molar.

Task item: Provide only the value of recorded pIC50 for `CN(C)C(=O)CCCCC(C)(C)c1ccc(-c2cccc(O)c2)c(O)c1`
Reply: 6.30

###

# target: CB1 receptors (Rattus norvegicus, UniProt P20272)
# Construct: cerebellar membranes (400 μg wet weight per tube) were thoroughly mixed in a final volume of 0.5 mL; from tissue; host or cells: rat cerebellum (Male Wistar rats), membrane homogenate
# Sequence (P20272 whole entry): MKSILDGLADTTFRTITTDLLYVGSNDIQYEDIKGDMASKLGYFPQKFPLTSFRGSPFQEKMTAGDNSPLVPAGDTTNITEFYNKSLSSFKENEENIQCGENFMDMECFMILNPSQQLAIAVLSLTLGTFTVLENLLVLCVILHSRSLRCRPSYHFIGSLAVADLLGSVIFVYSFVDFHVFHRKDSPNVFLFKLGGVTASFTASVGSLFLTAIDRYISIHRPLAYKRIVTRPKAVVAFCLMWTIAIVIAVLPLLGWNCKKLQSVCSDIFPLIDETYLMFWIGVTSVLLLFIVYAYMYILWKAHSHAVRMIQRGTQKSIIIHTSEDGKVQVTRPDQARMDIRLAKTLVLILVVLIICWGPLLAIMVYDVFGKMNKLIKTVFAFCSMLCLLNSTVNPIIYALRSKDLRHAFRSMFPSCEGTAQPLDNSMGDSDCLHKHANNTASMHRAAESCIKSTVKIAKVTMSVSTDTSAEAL
# measurement-protocol: Radioligand binding assay: displacement of [3H]SR141716A from rat cerebellar homogenates
# Excerpt: SR141716A from rat cerebellar homogenates. […] (M). Radioligand binding assays provide a simple measure of activity at the CB1 receptors. For functional activity, the vas deferens or cyclic 3′,5′-adenosine monophosphate (cAMP) assays described below are used. […] The filters were transferred to plastic Mini-PolyQ™ vials, Picofluor™ liquid scintillant added, and radioactivity (dpm) was quantified using a Beckman LS6000 Liquid Scintillation Counter. […]
pIC50: −log10 of the molar value.
Please use True whenever pIC50 is not below 6, and False whenever it is.

Task item: For this compound, is measured pIC50 6 or higher? CCCCCCC(C)(C)c1ccc(-c2cc(Cl)cc(Cl)c2)c(O)c1 [VSN28]
Reply: False

Task item: For this compound, is measured pIC50 6 or higher? CCCCCCC(C)(C)c1ccc(-c2cc(C)cc(C)c2)c(O)c1 [VSN29]
Reply: True

Task item: For this compound, is measured pIC50 6 or higher? CCCCCCC(C)(C)c1ccc(-c2cccnc2)c(O)c1 [VSN26]
Reply: False

Task item: For this compound, is measured pIC50 6 or higher? CCCCCCC(C)(C)c1ccc(-c2cccc(NC(C)=O)c2)c(O)c1 [VSN30]
Reply: False

Task item: For this compound, is measured pIC50 6 or higher? CCCCCCC(C)(C)c1ccc(-c2ccncc2)c(O)c1 [VSN27]
Reply: False

Task item: For this compound, is measured pIC50 6 or higher? CCCCCCC(C)(C)c1ccc(-c2cccc(CO)c2)c(O)c1 [VSN31]
Reply: False
